experimental system: UniProt:P13631
procedure summary: Relative transcriptional activation in COS cells expressing Retinoic acid receptor gamma compared to ATRA
Format: functional, cell-based
Parameter Relative EC30: see the listing below.
Please format your answer as a value with the unit trailing.

Known results for compounds:
| chemical structure | Relative EC30 |
| --- | --- |
| Cc1ccc2cc(-c3ccc(-c4ccc(C(=O)O)cc4)[nH]3)oc2c1C | 2000 nM |
| O=C(O)c1ccc(-c2ccc(-c3cc4c(Cl)ccc(Cl)c4o3)[nH]2)cc1 | 820 nM |
| Cc1cc(C)c2oc(-c3ccc(-c4ccc(C(=O)O)cc4)[nH]3)cc2c1 | 890 nM |

Reported Relative EC30 ( Cc1cccc2cc(-c3ccc(-c4ccc(C(=O)O)cc4)[nH]3)oc12 ) = 1000 nM

For reference, reported Relative EC30 for O=C(O)c1ccc(-c2ccc(-c3cc4c(C(F)(F)F)ccc(F)c4o3)[nH]2)cc1 stands at 110 nM

====

experimental system: Retinoic acid receptor beta (Homo sapiens) (UniProt P10826)
Sequence (P10826 whole entry): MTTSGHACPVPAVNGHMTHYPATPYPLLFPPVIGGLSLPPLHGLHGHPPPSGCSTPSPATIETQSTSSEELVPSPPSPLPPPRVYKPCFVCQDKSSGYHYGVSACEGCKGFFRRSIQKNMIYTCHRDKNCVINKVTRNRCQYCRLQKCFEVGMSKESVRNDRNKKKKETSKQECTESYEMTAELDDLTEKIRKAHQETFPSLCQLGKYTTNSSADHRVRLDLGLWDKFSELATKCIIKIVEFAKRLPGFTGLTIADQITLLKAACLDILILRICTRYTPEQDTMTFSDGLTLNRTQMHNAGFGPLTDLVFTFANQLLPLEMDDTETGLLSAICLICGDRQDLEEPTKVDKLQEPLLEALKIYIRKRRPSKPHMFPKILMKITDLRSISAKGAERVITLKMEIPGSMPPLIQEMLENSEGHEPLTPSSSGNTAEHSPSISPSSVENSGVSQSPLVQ
procedure summary: Relative transcriptional activation in COS cells expressing Retinoic acid receptor beta compared to ATRA
Type: functional, cell-based
So basically, the class depends on measured Relative EC30, and the ranges are low = under 100 nM, mid = from 100 nM up to 200 nM, high = 200 nM and over

Worked set:
| chemical structure | experimental system | class name |
| --- | --- | --- |
| Cc1cccc2cc(-c3ccc(-c4ccc(C(=O)O)cc4)[nH]3)oc12 | Retinoic acid receptor beta (Homo sapiens) (UniProt P10826) | low |
| Cc1cc(C)c2sc(-c3ccc(-c4ccc(C(=O)O)cc4)[nH]3)cc2c1 | Retinoic acid receptor beta (Homo sapiens) (UniProt P10826) | high |
| O=C(O)c1ccc(-c2ccc(-c3cc4c(C(F)(F)F)ccc(F)c4o3)[nH]2)cc1 | Retinoic acid receptor beta (Homo sapiens) (UniProt P10826) | low |

Tag the class for Cc1cc(C)c2oc(-c3ccc(-c4ccc(C(=O)O)cc4)[nH]3)cc2c1 high

Lab note: sort Cc1ccc2cc(-c3ccc(-c4ccc(C(=O)O)cc4)[nH]3)oc2c1C into the matching Relative EC30 band. mid

Which class is correct for the following compound? O=C(O)c1ccc(-c2ccc(-c3cc4c(Cl)ccc(Cl)c4o3)[nH]2)cc1 mid

Lab note: sort Cc1ccc(C)c2oc(-c3ccc(-c4ccc(C(=O)O)cc4)[nH]3)cc12 into the matching Relative EC30 band. low

Into which category would you place COc1ccc(C)c2oc(-c3ccc(-c4ccc(C(=O)O)cc4)[nH]3)cc12 ? high

Assign a category based on measured Relative EC30 for Cc1ccc(C)c2sc(-c3ccc(-c4ccc(C(=O)O)cc4)[nH]3)cc12 and give only the class name. mid

====

experimental system: Retinoic acid receptor gamma (Homo sapiens) (UniProt P13631)
Sequence (P13631 whole entry): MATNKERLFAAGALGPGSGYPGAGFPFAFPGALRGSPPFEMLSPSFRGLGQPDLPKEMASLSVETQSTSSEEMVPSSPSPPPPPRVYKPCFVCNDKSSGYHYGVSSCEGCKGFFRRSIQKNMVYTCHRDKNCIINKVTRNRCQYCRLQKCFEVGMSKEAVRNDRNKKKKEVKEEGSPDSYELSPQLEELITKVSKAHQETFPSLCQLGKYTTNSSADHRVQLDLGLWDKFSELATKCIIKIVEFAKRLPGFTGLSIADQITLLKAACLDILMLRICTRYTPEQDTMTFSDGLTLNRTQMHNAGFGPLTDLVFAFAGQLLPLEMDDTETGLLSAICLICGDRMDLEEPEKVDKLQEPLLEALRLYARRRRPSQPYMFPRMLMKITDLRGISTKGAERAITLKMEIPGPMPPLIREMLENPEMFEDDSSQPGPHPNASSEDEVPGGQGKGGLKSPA
procedure summary: Relative transcriptional activation in COS cells expressing Retinoic acid receptor gamma compared to ATRA
Assay type: functional, cell-based
Label satisfied when Relative EC30 is strictly below 3000 nM; at or above that, label not satisfied.

| chemical structure | experimental system | class name |
| --- | --- | --- |
| Cc1ccc(C)c2oc(-c3ccc(-c4ccc(C(=O)O)cc4)[nH]3)cc12 | Retinoic acid receptor gamma (Homo sapiens) (UniProt P13631) | satisfied |
| Cc1ccc(C)c2sc(-c3ccc(-c4ccc(C(=O)O)cc4)[nH]3)cc12 | Retinoic acid receptor gamma (Homo sapiens) (UniProt P13631) | satisfied |
| COc1ccc(C)c2oc(-c3ccc(-c4ccc(C(=O)O)cc4)[nH]3)cc12 | Retinoic acid receptor gamma (Homo sapiens) (UniProt P13631) | not satisfied |
| Cc1cc(C)c2sc(-c3ccc(-c4ccc(C(=O)O)cc4)[nH]3)cc2c1 | Retinoic acid receptor gamma (Homo sapiens) (UniProt P13631) | satisfied |

hey, is Relative EC30 for Cc1cc(C)c2oc(-c3ccc(-c4ccc(C(=O)O)cc4)[nH]3)cc2c1C lower than 3000 nM or not? satisfied
